Values compiled from ChEMBL document CHEMBL3988442.

Consider the following compounds and their measured Percent Effect readings.
Test system: Leishmania donovani
protocol: Leishmania intramacrophage assay
Format: functional, organism-based
Parameters: scale not given: in the data most compounds retested in dose-response had high values
measurement.setup: 30.3 µM; […]
Among all 69,000 compounds or so, about 1,000 (1.4%) showed an effect of 50% or more. The entries come from a sample that favours strong results as a whole.
// note: answer is a bare numeric in %

Example results:
- compound: "Cn1cccc1C(=O)N1CCO[C@@H]2CN(Cc3ccco3)C[C@@H]2C1"
  Percent Effect [%]: 19.73
- compound: "Cc1cc(CN2CCN(Cc3cc(C#N)ccc3F)CC2)no1"
  Percent Effect [%]: 28.56
- compound: "O=C(Cc1ccccn1)N1CCCC(c2nccn2CC2CCC2)C1 (centres undefined)"
  Percent Effect [%]: -1.281
- compound: "NC(=O)NC(=O)CCSCc1cc(F)cc2cccnc12"
  Percent Effect [%]: 50.58
- compound: "O=C(C[S+]([O-])Cc1cccc(Cl)c1)NC1CCCC1 (centres undefined)"
  Percent Effect [%]: 13.89
- compound: "CNC(=O)NC(=O)CCSCc1cc(F)cc2cccnc12"
  Percent Effect [%]: 2.728

// Percent Effect lookup, compound = CCOC(=O)CC1(Nc2nc(C)nc3c2cnn3C)CCCCC1 , result: 50.84

Record summary for Cc1ccccc1C1(C(=O)N2CCOC(C)C2)CCOCC1 (centres undefined) : reported Percent Effect = -3.571

The reported Percent Effect of the compound O=C(Cc1ccccc1)NC[C@H]1Cn2ccnc2CO1 was 5.132

In plain terms, COc1ccc(-c2nnc([C@H]3CCN(C4CCC4)C3)o2)cc1 has a documented Percent Effect of 5.132

Field Percent Effect (entry NS(=O)(=O)c1cccnc1Nc1c(Cl)cccc1Cl ) reads 68.36

Input Cc1ccc(C(=O)O)cc1CNC(=O)CN1CC(C)(C)[C@@](C)(O)C1 . Output Percent Effect: 14.97
